The reported measurements were obtained from ChEMBL document CHEMBL1201862.

This listing pairs compounds with measured GI50.
Test system: HT-29
testDescription: NCI tumour cell line growth inhibition, 48 h
Activity calls are given as the source filed them. Cut-off read from the data, not from the text of the source: active = GI50 up to about 1.1 µM and inactive = higher.

Check out these entries, answers already filled in.
Nn1c(S)nnc1C12CC3CC(CC(C3)C1)C2; > 100 µM (inactive)
N=C(N)NS(=O)(=O)c1ccc(Nc2c3ccccc3nc3c(C(=O)NC(CO)(CO)CO)cccc23)cc1; 21.3 µM (inactive)
Cc1cc(NS(=O)(=O)c2ccc(NC(=O)c3ccc4nc5ccccc5c(Nc5ccc(S(=O)(=O)Nc6cc(C)on6)cc5)c4c3)cc2)no1; > 50 µM (inactive)

With those in mind, consider the next compound.
Query (compound): "COc1cc(OC)c(Oc2cccc(OC)c2OC)c(OC)c1" ; field requested: GI50
> 100 µM (inactive)

---

Tested on: M14
testDescription: NCI tumour cell line growth inhibition, 48 h
Activity calls are given as the source filed them. No stated cut-off is given here; in the data, active = GI50 up to about 1.1 µM and inactive = higher.
Hello, when you answer, please use one of the following outcomes: active, inactive

Look over these answered cases.
CC[C@H](C)N(CCN)C(=O)c1cc2ccccc2c(-c2ccccc2Cl)n1; inactive
O=C1Cc2c([nH]c3ccc([N+](=O)[O-])cc23)-c2ccccc2N1 [ALSTERPAULLONE]; active
Cc1cc(C2(O)C=C(C(C)(C)C)C(=O)C(C(C)(C)C)=C2)c(C)cc1C1(O)C=C(C(C)(C)C)C(=O)C(C(C)(C)C)=C1; inactive
N#Cc1c(N)c2c(c(-c3ccccc3)c1-c1ccccc1)C(=O)N(O)C2=O; inactive
CC#CC#C/C(=C/C=CC(=O)OC)SC; inactive
O=C1c2ccccc2C(=O)c2c1ccc(C(=O)O)c2-c1ccc2ccccc2c1; inactive
CC(C)(C)CC(C)(C)c1ccc(O)c(C[N+](C)(C)[O-])c1; inactive
Cc1ccccc1NC(=O)C(=O)CC(=O)C1CCOC1=O (stereo not given); inactive

Per the assay record, what outcome was assigned to "CC(=O)O[C@H]1/C(=C/c2ccc(N(C)C)cc2)C[C@H]2[C@@H]3CC=C4C[C@@H](N5CCCC5)CC[C@]4(C)[C@H]3CC[C@]12C" ?
inactive

Then what about the compound N#Cc1cccc(N2C(=O)C3C4C=CC(C3C2=O)C2C(=O)N(c3cccc(C#N)c3)C(=O)C42)c1 (stereo not given) ?
inactive

Then what about the compound CCOC(=O)C(Cc1ccc(N(CCCl)CCCl)cc1)NC(=O)CCCN1C(=O)CN=C(c2ccccc2)c2cc(Cl)ccc21 (stereo not given) ?
inactive

Then what about the compound CC(=O)c1nc2ccccc2n1C(C)C(=O)c1ccccc1 (stereo not given) ?
inactive

Then what about the compound "CC(=O)CN/C(C)=N/Nc1ccc([N+](=O)[O-])cc1[N+](=O)[O-]" ?
inactive

Then what about the compound O=C1C(CN2CCCC2)CCCC1CN1CCCC1 (stereo not given) ?
inactive

Then what about the compound "O=C1c2ccccc2C(=O)c2oc(Br)cc21" ?
active

---

This listing pairs compounds with measured GI50.
Test system: SNB-19
testDescription: NCI tumour cell line growth inhibition, 48 h
Active and inactive are the calls of the source. No stated cut-off is given here; in the data, active = GI50 up to about 1.1 µM and inactive = higher.

N=C(N)NS(=O)(=O)c1ccc(Nc2c3ccccc3nc3c(C(=O)NC(CO)(CO)CO)cccc23)cc1; 28.1 µM (inactive)
Nc1ccc(Nc2c3ccccc3nc3ccccc23)cc1; 4.99 µM (inactive)
CN(C)CCNC(=O)c1cccc2c(=O)c3ccccc3oc12; 36.9 µM (inactive)
CC(Oc1ccc2c(-c3ccc(Cl)cc3)cc(=O)oc2c1)C(=O)O (stereo not given); > 100 µM (inactive)

With those in mind, consider the next compound.
Query (compound): "CCCCCCCCCCCCSC(=S)c1c(C)[nH]n(-c2ccccc2)c1=O" ; field requested: GI50
12.4 µM (inactive)

---

Tested on: SF-539
testDescription: NCI tumour cell line growth inhibition, 48 h
The source made the active and inactive calls. Cut-off read from the data, not from the text of the source: active = GI50 up to about 1.1 µM and inactive = higher.
Hello, when you answer, please use one of the following outcomes: active, inactive

O=C1OC2C(O)COC2(O)C1(O)Cc1c[nH]c2ccccc12 (centres undefined); inactive
Cc1nc2nnnn2c2c1C(=O)Nc1ccccc1N2; inactive
Clc1ccc(-c2cc(-c3cc4cc(Br)ccc4nc3Cl)on2)cc1; inactive
Cc1cc2cc3c(O)nc(O)nc3nc2cc1C; inactive
CN(C)c1ccc(/C=C/c2cc(-c3ccccc3)[n+](C)n2-c2ccccc2)cc1; inactive

Per the assay record, what outcome was assigned to CCCC[C@H]1C(=O)O[C@H](C)[C@H](NC(=O)c2cccc(NC=O)c2O)C(=O)O[C@@H](C)[C@@H]1OC(=O)CC(C)C [ANTIMYCIN A3] ?
inactive

---

Tested on: EKVX
testDescription: NCI tumour cell line growth inhibition, 48 h
Activity calls are given as the source filed them. Cut-off read from the data, not from the text of the source: active = GI50 up to about 1.1 µM and inactive = higher.
This listing pairs compounds with measured GI50.

Check out these entries, answers already filled in.
CC1=NOC(=O)/C1=C/c1cccc2ccccc12; > 100 µM (inactive)
OCC1OC(Oc2cc(O)cc(/C=C\c3ccc(O)cc3)c2)C(O)C(O)C1O (stereo not given); > 100 µM (inactive)
CN(C)CC1COC2Cc3ccccc3C1O2 (stereo not given); > 100 µM (inactive)
C[N+](C)(C)CCOP(=O)([O-])OCCNC(=O)c1ccc2ccccc2c1; > 100 µM (inactive)
O=C(Oc1c(Cl)cc(C2(c3cc(Cl)c(OC(=O)c4ccccc4)c(Cl)c3)CCCCC2)cc1Cl)c1ccccc1; 11.1 µM (inactive)
CN(CC(=O)O)S(=O)(=O)c1ccc2ccccc2c1; > 100 µM (inactive)
CC(=O)OCC1OC(n2c3c(c(-c4cccc5ccccc45)c(C#N)c2=S)CCCC3)C(OC(C)=O)C(OC(C)=O)C1OC(C)=O (stereo not given); 25.8 µM (inactive)
Cc1nc2nnnn2c2c1C(=O)Nc1ccccc1N2; 79.8 µM (inactive)
O=C(Nc1ccccc1)N1CCN(C(=O)Nc2ccccc2)C1=S; > 100 µM (inactive)
O=C1OCC/C1=N/O; > 100 µM (inactive)

Query (compound): "Cn1c(=O)c2c(nc3n2CCC(=O)N3)n(C)c1=O" ; field requested: GI50
> 100 µM (inactive)

---

Tested on: UACC-257
testDescription: NCI tumour cell line growth inhibition, 48 h
Calls of active or inactive are those of the source. Rule as the data show it: active = GI50 up to about 1.1 µM and inactive = higher.
Hello, when you answer, please use one of the following outcomes: active, inactive

Cc1ccc(C2(N3CCCC3)OC(C)(C)c3cccc4cccc2c34)cc1 (stereo unspecified); inactive

Per the assay record, what outcome was assigned to COc1ccc2ccc3c(c2c1)CN1CCc2cc(OC)c(OC)cc2C1C3 (stereo unspecified) ?
inactive

Then what about the compound "Nc1ccc2c(SCc3ccc([N+](=O)[O-])cc3)c3ccccc3nc2c1" ?
inactive

Then what about the compound "CN(C)CCCNc1ccc2c(=O)n(CCN(C)C)c(=O)n3c4ccccc4c(=O)c1c23" ?
active

Then what about the compound "COc1ccc(/C=N/NC(=O)O)cc1" ?
inactive

Then what about the compound CS(=O)(=O)OCC1CCCCCCCCCCC12SCCCS2 (stereo unspecified) ?
inactive

---

Tested on: Malme-3M
testDescription: NCI tumour cell line growth inhibition, 48 h
Activity calls are given as the source filed them. Rule as the data show it: active = GI50 up to about 1.1 µM and inactive = higher.
Hello, when you answer, please use one of the following outcomes: 1 (yes) (active), 0 (no) (inactive)

COc1cc([N+](=O)[O-])c(S(=O)(=O)[O-])cc1-[n+]1nc(C(=O)Nc2ccccc2)nn1-c1ccc([N+](=O)[O-])c(S(=O)(=O)O)c1; 0 (no)
Cc1cc(NC(=O)NC(=O)c2ccccc2NC(=O)C(C)N)ccc1Oc1ncc(Br)cn1 (configuration not stated); 1 (yes)
CC(C)[Si](OC/C(=C/COC(C)(C)C)[C@H]1CC=C(C(=O)c2ccccc2N2CN(C)C(=O)N(C)C2)C1)(C(C)C)C(C)C; 0 (no)
CC1=C(C(=O)CC(=O)C(=O)Nc2ccc(Cl)cc2C)Sc2ccccc2N1; 0 (no)

Per the assay record, what outcome was assigned to Nc1nc(SCCC/C=C/I)nc2c1ncn2C1OC(COP(=O)(O)O)C(O)C1O (configuration not stated) ?
0 (no)

Then what about the compound "Cc1nc2nnnn2c2c1C(=O)Nc1ccccc1N2" ?
0 (no)

Then what about the compound "CN(C)CCCNc1ccc2c(=O)n(CCN(C)C)c(=O)n3c4ccccc4c(=O)c1c23" ?
1 (yes)

---

Test system: SF-295
testDescription: NCI tumour cell line growth inhibition, 48 h
Activity calls are given as the source filed them. Cut-off read from the data, not from the text of the source: active = GI50 up to about 1.1 µM and inactive = higher.
propertyMeasured: GI50

Check out these entries, answers already filled in.
CCN(CC)CCOC(=O)CCN1CC2CCC(CC2)C1; > 100 µM (inactive)
COC(=O)[C@@H]1C=C[C@@H](C#N)n2c(=O)n(-c3ccccc3)c(=O)n21; 23.8 µM (inactive)
Cc1nc(Cl)c2sc(=S)n(-c3ccc(F)cc3)c2n1; 10.9 µM (inactive)
C[N+](C)(C)CCOP(=O)([O-])OCCNC(=O)c1ccc2ccccc2c1; > 100 µM (inactive)

With those in mind, consider the next compound.
Query (compound): "CCCCCCNC(=O)c1cc(CCc2cc(O)ccc2O)ccc1O" ; field requested: GI50
14.1 µM (inactive)
